# study.target: Leucine aminopeptidase (Plasmodium falciparum (isolate 3D7)) (UniProt Q8IL11)
# Sequence (Q8IL11 whole entry, looked up): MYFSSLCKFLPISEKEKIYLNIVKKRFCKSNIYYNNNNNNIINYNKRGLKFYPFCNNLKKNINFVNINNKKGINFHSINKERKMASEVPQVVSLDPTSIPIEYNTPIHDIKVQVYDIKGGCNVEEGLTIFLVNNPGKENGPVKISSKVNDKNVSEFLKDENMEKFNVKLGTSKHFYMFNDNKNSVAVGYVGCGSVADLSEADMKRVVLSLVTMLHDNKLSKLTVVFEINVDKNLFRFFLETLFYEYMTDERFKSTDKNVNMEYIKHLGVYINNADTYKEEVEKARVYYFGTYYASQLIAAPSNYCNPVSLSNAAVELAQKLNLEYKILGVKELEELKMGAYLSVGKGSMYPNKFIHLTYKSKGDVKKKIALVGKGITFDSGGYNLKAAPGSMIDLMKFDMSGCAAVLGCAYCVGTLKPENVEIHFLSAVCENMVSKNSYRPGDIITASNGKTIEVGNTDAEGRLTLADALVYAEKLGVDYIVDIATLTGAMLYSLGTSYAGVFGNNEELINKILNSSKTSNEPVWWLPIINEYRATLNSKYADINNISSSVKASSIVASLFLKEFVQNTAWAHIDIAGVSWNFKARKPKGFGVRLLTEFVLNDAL
# assay.comment: P. falciparum M17LAP inhibitors, primary screen, biochemical, fluorogenic H-Leu-NHMec substrate, 1536-well (AID 1619);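 also: plate controls were full reaction with DMSO carrier for no effect and no enzyme background for full effect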
# setup.conditions: recombinant M17LAP, H-Leu-NHMec fluorogenic kinetic assay; at 30 µM; stronger effect = higher value
Hit rate of the full screen: of about 220,000 compounds, about 830 (0.38%) were called active. The list is a sample of the results. Potency and affinity values are given separately.
readout.label: inhibition (%)
Give just the number in %; leave the unit off.

Q: If you can, please state the reported inhibition value of C/C(=N\NC(=O)COc1ccccc1)c1ccc(O)cc1 .
Result: 16.8

Q: If you can, please state the reported inhibition value of COc1ccc2c(c1)SCC/C2=C\CN1C(=O)CCC1=O .
Result: -6.21

Q: If you can, please state the reported inhibition value of Cn1nnc2cc(C(=O)N3CCC(c4ccccc4)C3)ccc21 (configuration not stated) .
Result: 9.75

Q: If you can, please state the reported inhibition value of Cc1noc(C)c1COc1ccc(C(=O)OCC(=O)Nc2ccc3c(c2)OCO3)cc1 .
Result: 4.59

Q: If you can, please state the reported inhibition value of CC(=O)Nc1sc2c(c1C#N)CCC(C)C2 (configuration not stated) .
Result: -3.55

Q: If you can, please state the reported inhibition value of COc1cc(/C(C)=N/NC(=O)CSc2nnc(C)s2)ccc1O .
Result: -1.63

Q: If you can, please state the reported inhibition value of CN1CCN(CC(=O)Nc2sc3c(c2C#N)CCC(C(C)(C)C)C3)CC1 (configuration not stated) .
Result: -2.54

Q: If you can, please state the reported inhibition value of CCCC1CCc2c(sc(NC(=O)OCC)c2C#N)C1 (configuration not stated) .
Result: -10

Q: If you can, please state the reported inhibition value of Cc1ccccc1C(=O)NC(CC(C)C)C(=O)OCC(=O)c1c(N)n(C)c(=O)n(C)c1=O (configuration not stated) .
Result: -1.49

Q: If you can, please state the reported inhibition value of N#C/C(=C/c1ccc(F)cc1)S(=O)(=O)c1ccccc1 .
Result: -4.38

Q: If you can, please state the reported inhibition value of C/C(=N\NC(=O)Cc1c[nH]c2ccccc12)c1ccc2ccccc2c1 .
Result: -0.21

Q: If you can, please state the reported inhibition value of C/C(=N\NC(=O)Cc1cccn1C)c1ccc2ccccc2c1 .
Result: 32.5
